- method description: chemical genetic growth profiling, strain panel (AID 1159580);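 further: tested at 20 µM; growth read once vehicle control cultures reached saturation at 30 °C; 1 = growth at the plate median or of vehicle wells; lower values mean less growth of the strain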
- condition details: S. cerevisiae deletion strains, growth OD, locus YDR069C, strain doa4, hits give low values
Among all 5,500 compounds or so, about 2,000 (36%) were called active. Roughly 18% stayed inconclusive and do not appear here. Some of the results follow.
This section presents molecules with their documented normalized growth values.

- molecule: "COc1cccc2c1CCC1=CC(=O)CC[C@@]12C"
  normalized growth: "0.987 (inactive)"
- molecule: "NC(=O)c1ccccc1O"
  normalized growth: "0.952 (inactive)"
- molecule: "C[C@H]1O[C@H](O[C@H]2[C@H](O)[C@@H](O)[C@@H](O[C@H]3[C@H](O)[C@@H](O)C(O)O[C@@H]3CO)O[C@@H]2CO)[C@H](O)[C@@H](O)[C@@H]1N[C@H]1C=C(CO)[C@@H](O)[C@H](O)[C@H]1O (some centres undefined)"
  normalized growth: "0.985 (inactive)"
- molecule: "COc1ccccc1N1CCN(CCCNc2cc(=O)n(C)c(=O)n2C)CC1"
  normalized growth: "1.01 (inactive)"

Reference for the values: PubChem BioAssay AID1159580
